Test system: cancer cells
EXPERIMENT: MTT cytotoxic assay of esterification products (Cytotoxicity activity)
Assay type: cell-based, human
ASSAY SETUP: MTT cytotoxic assay, isolated esterification products of E4A
QUANTITY KIND: Cytotoxicity activity

INSERT INTO results (compound, observed_result) VALUES
  ('C=CCCC(=O)OC1C(OC(=O)CCC=C)C2(CO)C(O)CC3(C)C(=CCC4C5(C)CCC(OC(=O)CCC=C)C(C)(CO)C5CCC43C)C2CC1(C)C (stereo not drawn) [Compound C23]', 'moderate'),
  ('CC(C)=CC(=O)OCC12C(O)CC3(C)C(=CCC4C5(C)CCC(O)C(C)(CO)C5CCC43C)C1CC(C)(C)C(OC(=O)C=C(C)C)C2O (stereo not drawn) [Compound B25]', 'moderate'),
  ('CC=C(C)C(=O)OCC1(C)C(OC(=O)C(C)=CC)CCC2(C)C1CCC1(C)C2CC=C2C3CC(C)(C)C(O)C(OC(=O)C(C)=CC)C3(COC(=O)C(C)=CC)C(O)CC21C (stereo not drawn) [Compound A14]', 'weak');

----------
System: cancer cells
EXPERIMENT: MTT cytotoxic assay of esterification products (Cytotoxicity activity)
Assay type: cell-based, human
ASSAY SETUP: E4A esterified with Cinnamoyl chloride (Cin = Cinnamoyl), compounds isolated with HPLC
QUANTITY KIND: Cytotoxicity activity

INSERT INTO measurements (molecule, observed_result) VALUES
  ('CC1(C)CC2C3=CCC4C5(C)CCC(OC(=O)C=Cc6ccccc6)C(C)(COC(=O)C=Cc6ccccc6)C5CCC4(C)C3(C)CC(OC(=O)C=Cc3ccccc3)C2(COC(=O)C=Cc2ccccc2)C(O)C1OC(=O)C=Cc1ccccc1 (stereo not shown) [Compound J17]', 'weak'),
  ('CC1(C)CC2C3=CCC4C5(C)CCC(O)C(C)(COC(=O)C=Cc6ccccc6)C5CCC4(C)C3(C)CC(OC(=O)C=Cc3ccccc3)C2(COC(=O)C=Cc2ccccc2)C(O)C1OC(=O)C=Cc1ccccc1 (stereo not shown) [Compound J13]', 'weak'),
  ('CC1(C)CC2C3=CCC4C5(C)CCC(OC(=O)C=Cc6ccccc6)C(C)(COC(=O)C=Cc6ccccc6)C5CCC4(C)C3(C)CC(OC(=O)C=Cc3ccccc3)C2(COC(=O)C=Cc2ccccc2)C(OC(=O)C=Cc2ccccc2)C1O (stereo not shown) [Compound J18]', 'weak');

----------
Test system: cancer cells
EXPERIMENT: MTT cytotoxic assay of esterification products (Cytotoxicity activity)
Type: cell-based, human
ASSAY SETUP: E4A esterified with benzoyl chloride (Ben = benzoyl), compounds isolated with HPLC
QUANTITY KIND: Cytotoxicity activity

Completed entries (count: 6):
INSERT INTO results (molecule, observed_result) VALUES
  ('CC1(C)CC2C3=CCC4C5(C)CCC(O)C(C)(COC(=O)c6ccccc6)C5CCC4(C)C3(C)CC(OC(=O)c3ccccc3)C2(COC(=O)c2ccccc2)C(OC(=O)c2ccccc2)C1O (stereo not shown)', 'weak'),
  ('CC1(C)CC2C3=CCC4C5(C)CCC(OC(=O)c6ccccc6)C(C)(CO)C5CCC4(C)C3(C)CC(O)C2(CO)C(OC(=O)c2ccccc2)C1OC(=O)c1ccccc1 (stereo not shown)', 'moderate'),
  ('CC1(C)CC2C3=CCC4C5(C)CCC(O)C(C)(COC(=O)c6ccccc6)C5CCC4(C)C3(C)CC(O)C2(CO)C(OC(=O)c2ccccc2)C1OC(=O)c1ccccc1 (stereo not shown)', 'moderate'),
  ('CC1(C)CC2C3=CCC4C5(C)CCC(OC(=O)c6ccccc6)C(C)(COC(=O)c6ccccc6)C5CCC4(C)C3(C)CC(O)C2(COC(=O)c2ccccc2)C(OC(=O)c2ccccc2)C1O (stereo not shown)', 'weak'),
  ('CC1(C)CC2C3=CCC4C5(C)CCC(OC(=O)c6ccccc6)C(C)(COC(=O)c6ccccc6)C5CCC4(C)C3(C)CC(OC(=O)c3ccccc3)C2(COC(=O)c2ccccc2)C(O)C1OC(=O)c1ccccc1 (stereo not shown)', 'weak'),
  ('CC1(C)CC2C3=CCC4C5(C)CCC(O)C(C)(CO)C5CCC4(C)C3(C)CC(O)C2(COC(=O)c2ccccc2)C(O)C1OC(=O)c1ccccc1 (stereo not shown)', 'moderate');

Given the molecule CC1(C)CC2C3=CCC4C5(C)CCC(O)C(C)(COC(=O)c6ccccc6)C5CCC4(C)C3(C)CC(OC(=O)c3ccccc3)C2(COC(=O)c2ccccc2)C(O)C1OC(=O)c1ccccc1 (stereo not shown) , what is its reported Cytotoxicity activity? weak

----------
System: cancer cells
EXPERIMENT: MTT cytotoxic assay of esterification products (Cytotoxicity activity)
Format: cell-based, human
ASSAY SETUP: esterification products isolated with HPLC; graded strong / moderate / weak
QUANTITY KIND: Cytotoxicity activity

Completed entries (count: 9):
INSERT INTO assay_data (compound, observed_result) VALUES
  ('C=CCCC(=O)OC1C(OC(=O)CCC=C)C2(COC(=O)C(C)=CC)C(O)CC3(C)C(=CCC4C5(C)CCC(O)C(C)(COC(=O)C(C)=CC)C5CCC43C)C2CC1(C)C (centres unmarked)', 'weak'),
  ('CC=C(C)C(=O)OCC1(C)C(O)CCC2(C)C1CCC1(C)C2CC=C2C3CC(C)(C)C(OC(=O)C(CC)CC)C(OC(=O)C(CC)CC)C3(COC(=O)C(C)=CC)C(O)CC21C (centres unmarked)', 'weak'),
  ('CC=C(C)C(=O)OCC1(C)C(OC(C)=O)CCC2(C)C1CCC1(C)C2CC=C2C3CC(C)(C)C(O)C(O)C3(COC(C)=O)C(O)CC21C (centres unmarked)', 'moderate'),
  ('CC=C(C)C(=O)OCC1(C)C(OC(=O)C=Cc2ccccc2)CCC2(C)C1CCC1(C)C2CC=C2C3CC(C)(C)C(O)C(OC(=O)C=Cc4ccccc4)C3(COC(=O)C(C)=CC)C(O)CC21C (centres unmarked)', 'weak'),
  ('CC=C(C)C(=O)OCC1(C)C(O)CCC2(C)C1CCC1(C)C2CC=C2C3CC(C)(C)C(OC(=O)C=C(C)C)C(O)C3(COC(=O)C(C)=CC)C(O)CC21C (centres unmarked)', 'moderate'),
  ('CC=C(C)C(=O)OCC1(C)C(O)CCC2(C)C1CCC1(C)C2CC=C2C3CC(C)(C)C(OC(=O)CCCCC)C(O)C3(CO)C(O)CC21C (centres unmarked)', 'moderate'),
  ('CC=C(C)C(=O)OCC1(C)C(O)CCC2(C)C1CCC1(C)C2CC=C2C3CC(C)(C)C(O)C(OC(C)=O)C3(COC(=O)C(C)=CC)C(O)CC21C (centres unmarked)', 'moderate'),
  ('CC=C(C)C(=O)OCC1(C)C(OC(=O)CCCCC)CCC2(C)C1CCC1(C)C2CC=C2C3CC(C)(C)C(O)C(O)C3(COC(=O)CCCCC)C(O)CC21C (centres unmarked)', 'moderate'),
  ('CC=C(C)C(=O)OCC1(C)C(O)CCC2(C)C1CCC1(C)C2CC=C2C3CC(C)(C)C(OC(=O)CCCCC)C(OC(=O)CCCCC)C3(COC(=O)C(C)=CC)C(O)CC21C (centres unmarked)', 'weak');

Next compound, Cytotoxicity activity to be filled in.
Given the compound C=CCCC(=O)OC1C(O)C(C)(C)CC2C3=CCC4C5(C)CCC(O)C(C)(COC(=O)C(C)=CC)C5CCC4(C)C3(C)CC(O)C21CO (centres unmarked) , what is its reported Cytotoxicity activity? moderate

----------
Tested on: cancer cells
EXPERIMENT: MTT cytotoxic assay of esterification products (Cytotoxicity activity)
Format: cell-based, human
ASSAY SETUP: MTT cytotoxic assay, isolated esterification products of E4A
QUANTITY KIND: Cytotoxicity activity

Completed entries (count: 4):
INSERT INTO measurements (compound, assay_target, observed_result) VALUES
  ('C=CCCC(=O)OCC1(C)C(OC(=O)CCC=C)CCC2(C)C1CCC1(C)C2CC=C2C3CC(C)(C)C(OC(=O)CCC=C)C(OC(=O)CCC=C)C3(COC(=O)CCC=C)C(OC(=O)CCC=C)CC21C (centres unmarked)', 'cancer cells', 'none'),
  ('C=CCCC(=O)OCC1(C)C(OC(=O)CCC=C)CCC2(C)C1CCC1(C)C2CC=C2C3CC(C)(C)C(O)C(OC(=O)CCC=C)C3(COC(=O)CCC=C)C(O)CC21C (centres unmarked) [Compound C9]', 'cancer cells', 'weak'),
  ('CC=C(C)C(=O)OCC1(C)C(O)CCC2(C)C1CCC1(C)C2CC=C2C3CC(C)(C)C(OC(=O)C(C)=CC)C(OC(=O)C(C)=CC)C3(CO)C(O)CC21C (centres unmarked)', 'cancer cells', 'moderate'),
  ('CCCCCC(=O)OC1C(OC(=O)CCCCC)C2(CO)C(OC(=O)CCCCC)CC3(C)C(=CCC4C5(C)CCC(O)C(C)(CO)C5CCC43C)C2CC1(C)C (centres unmarked)', 'cancer cells', 'moderate');

What Cytotoxicity activity appears in the records for this compound with cancer cells? CC=C(C)C(=O)OCC1(C)C(OC(=O)C(C)=CC)CCC2(C)C1CCC1(C)C2CC=C2C3CC(C)(C)C(O)C(O)C3(COC(=O)C(C)=CC)C(O)CC21C (centres unmarked) moderate
